test system: dengue virus type 2; experiment: Activity of dengue virus 2 recombinant NS3 protease expressed in Escherichia coli C41(DE3) by fluorogenic assay
Non-standard residues stand in square brackets, D forms with d. Residues, ends and D or L forms follow the SMILES beside them. Tyr(3-NO2) = N[C@@H](Cc1ccc(O)c([N+](=O)[O-])c1)C(=O)O; 2Abz = Nc1ccccc1C(=O)O
endpoint-label: kcat (s⁻¹)
Your answer is read as s⁻¹, so omit the unit and give the number.

compound	kcat (s⁻¹)
C[C@H](NC(=O)[C@H](CO)NC(=O)c1ccccc1N)C(=O)NCC(=O)N[C@@H](Cc1ccc(O)c([N+](=O)[O-])c1)C(N)=O (H-[2Abz]SAG[Tyr(3-NO2)]-NH2)	0.0423

kcat reported for this compound C[C@@H](O)[C@H](NC(=O)[C@H](CO)NC(=O)[C@H](CC(=O)O)NC(=O)c1ccccc1N)C(=O)N[C@@H](CS)C(=O)N[C@@H](Cc1ccc(O)c([N+](=O)[O-])c1)C(N)=O (H-[2Abz]DSTC[Tyr(3-NO2)]-NH2) : 0.00117

Measured kcat of C[C@H](NC(=O)CNC(=O)c1ccccc1N)C(=O)N[C@H](C(=O)N[C@@H](Cc1cnc[nH]1)C(=O)N[C@@H](Cc1ccc(O)c([N+](=O)[O-])c1)C(N)=O)[C@@H](C)O (H-[2Abz]GATH[Tyr(3-NO2)]-NH2) : 0.0157

====

test system: dengue virus type 3; experiment: Activity of dengue virus 3 recombinant NS3 protease expressed in Escherichia coli C41(DE3) by fluorogenic assay
Non-standard residues stand in square brackets, D forms with d. Residues, ends and D or L forms follow the SMILES beside them. Tyr(3-NO2) = N[C@@H](Cc1ccc(O)c([N+](=O)[O-])c1)C(=O)O; 2Abz = Nc1ccccc1C(=O)O
endpoint-label: kcat (s⁻¹)
Your answer is read as s⁻¹, so omit the unit and give the number.

Consider the worked cases shown below.
molecule	recorded-result
NC(=O)[C@H](Cc1ccc(O)c([N+](=O)[O-])c1)NC(=O)[C@H](Cc1cnc[nH]1)NC(=O)[C@H](CS)NC(=O)CNC(=O)[C@H](CC(=O)O)NC(=O)c1ccccc1N (H-[2Abz]DGCH[Tyr(3-NO2)]-NH2)	0.00283
C[C@H](NC(=O)c1ccccc1N)C(=O)N1CCC[C@H]1C(=O)N[C@@H](CS)C(=O)N[C@@H](CC(N)=O)C(=O)N[C@@H](Cc1ccc(O)c([N+](=O)[O-])c1)C(N)=O (H-[2Abz]APCN[Tyr(3-NO2)]-NH2)	0.0112
CC(C)[C@H](NC(=O)[C@@H](NC(=O)CNC(=O)c1ccccc1N)[C@@H](C)O)C(=O)N[C@@H](CC(N)=O)C(=O)N[C@@H](Cc1ccc(O)c([N+](=O)[O-])c1)C(N)=O (H-[2Abz]GTVN[Tyr(3-NO2)]-NH2)	0.00967

Kindly consider the entry below.
molecule C[C@H](NC(=O)c1ccccc1N)C(=O)NCC(=O)N1CCC[C@H]1C(=O)N[C@@H](CC(N)=O)C(=O)N[C@@H](Cc1ccc(O)c([N+](=O)[O-])c1)C(N)=O (H-[2Abz]AGPN[Tyr(3-NO2)]-NH2) , kcat observed: 0.0103

====

system: dengue virus type 4; experiment: Activity of dengue virus 4 recombinant NS3 protease expressed in Escherichia coli C41(DE3) by fluorogenic assay
Non-standard residues stand in square brackets, D forms with d. Residues, ends and D or L forms follow the SMILES beside them. Tyr(3-NO2) = N[C@@H](Cc1ccc(O)c([N+](=O)[O-])c1)C(=O)O; 2Abz = Nc1ccccc1C(=O)O
# kcat annotations
State just the number; it will be interpreted in s⁻¹.

Some solved cases for reference:
compound	kcat / s⁻¹
C[C@H](NC(=O)c1ccccc1N)C(=O)N1CCC[C@H]1C(=O)NCC(=O)N[C@@H](CC(=O)O)C(=O)N[C@@H](Cc1ccc(O)c([N+](=O)[O-])c1)C(N)=O (H-[2Abz]APGD[Tyr(3-NO2)]-NH2)	0.0103
CSCC[C@H](NC(=O)CNC(=O)[C@H](C)NC(=O)[C@H](CO)NC(=O)c1ccccc1N)C(=O)N[C@@H](Cc1ccc(O)c([N+](=O)[O-])c1)C(N)=O (H-[2Abz]SAGM[Tyr(3-NO2)]-NH2)	0.282
C[C@H](NC(=O)c1ccccc1N)C(=O)N[C@@H](Cc1cnc[nH]1)C(=O)N[C@@H](CO)C(=O)N[C@@H](CS)C(=O)N[C@@H](Cc1ccc(O)c([N+](=O)[O-])c1)C(N)=O (H-[2Abz]AHSC[Tyr(3-NO2)]-NH2)	0.0305
C[C@H](NC(=O)[C@H](CO)NC(=O)c1ccccc1N)C(=O)NCC(=O)N[C@@H](Cc1ccc(O)c([N+](=O)[O-])c1)C(N)=O (H-[2Abz]SAG[Tyr(3-NO2)]-NH2)	0.461

Kindly note the recorded kcat for C[C@H](NC(=O)CNC(=O)c1ccccc1N)C(=O)N[C@H](C(=O)N[C@@H](Cc1cnc[nH]1)C(=O)N[C@@H](Cc1ccc(O)c([N+](=O)[O-])c1)C(N)=O)[C@@H](C)O (H-[2Abz]GATH[Tyr(3-NO2)]-NH2) , which is 0.0782

====

Km reference
test system: dengue virus type 2; assay: Activity of dengue virus 2 recombinant NS3 protease expressed in Escherichia coli C41(DE3) by fluorogenic assay
Non-standard residues stand in square brackets, D forms with d. Residues, ends and D or L forms follow the SMILES beside them. Tyr(3-NO2) = N[C@@H](Cc1ccc(O)c([N+](=O)[O-])c1)C(=O)O; 2Abz = Nc1ccccc1C(=O)O
The reply should be a number in µM, with the unit left off.

Known Km results, listed for orientation:
compound	recorded-result
C[C@H](NC(=O)CNC(=O)[C@H](C)NC(=O)[C@H](CO)NC(=O)c1ccccc1N)C(=O)N[C@@H](Cc1ccc(O)c([N+](=O)[O-])c1)C(N)=O (H-[2Abz]SAGA[Tyr(3-NO2)]-NH2)	3.06
CC(C)C[C@H](NC(=O)[C@@H]1CCCN1C(=O)[C@H](Cc1c[nH]c2ccccc12)NC(=O)[C@H](CO)NC(=O)c1ccccc1N)C(=O)N[C@@H](Cc1ccc(O)c([N+](=O)[O-])c1)C(N)=O (H-[2Abz]SWPL[Tyr(3-NO2)]-NH2)	5.54
C[C@@H](O)[C@H](NC(=O)[C@H](CO)NC(=O)[C@H](CC(=O)O)NC(=O)c1ccccc1N)C(=O)N[C@@H](CS)C(=O)N[C@@H](Cc1ccc(O)c([N+](=O)[O-])c1)C(N)=O (H-[2Abz]DSTC[Tyr(3-NO2)]-NH2)	12.8

For CSCC[C@H](NC(=O)CNC(=O)[C@H](C)NC(=O)[C@H](C)NC(=O)c1ccccc1N)C(=O)N[C@@H](Cc1ccc(O)c([N+](=O)[O-])c1)C(N)=O (H-[2Abz]AAGM[Tyr(3-NO2)]-NH2) the compound record lists Km as 2.46

====

tested on: dengue virus type 2; experiment: Activity of dengue virus 2 recombinant NS3 protease expressed in Escherichia coli C41(DE3) by fluorogenic assay
Non-standard residues stand in square brackets, D forms with d. Residues, ends and D or L forms follow the SMILES beside them. Tyr(3-NO2) = N[C@@H](Cc1ccc(O)c([N+](=O)[O-])c1)C(=O)O; 2Abz = Nc1ccccc1C(=O)O
Here, each record is paired with measured kcat data.
Quick reminder: number only, in min⁻¹, skip the unit.

compound	assay-system	kcat [min⁻¹]
C[C@@H](O)[C@H](NC(=O)[C@H](CO)NC(=O)c1ccccc1N)C(=O)N1CCC[C@H]1C(=O)N[C@@H](Cc1cnc[nH]1)C(=O)N[C@@H](Cc1ccc(O)c([N+](=O)[O-])c1)C(N)=O (H-[2Abz]STPH[Tyr(3-NO2)]-NH2)	dengue virus type 2	0.94
NC(=O)[C@H](Cc1ccc(O)c([N+](=O)[O-])c1)NC(=O)[C@H](CS)NC(=O)[C@@H]1CCCN1C(=O)[C@H](CC(=O)O)NC(=O)CNC(=O)c1ccccc1N (H-[2Abz]GDPC[Tyr(3-NO2)]-NH2)	dengue virus type 2	0.18
CSCC[C@H](NC(=O)CNC(=O)[C@H](C)NC(=O)[C@H](C)NC(=O)c1ccccc1N)C(=O)N[C@@H](Cc1ccc(O)c([N+](=O)[O-])c1)C(N)=O (H-[2Abz]AAGM[Tyr(3-NO2)]-NH2)	dengue virus type 2	0.55
C[C@H](NC(=O)CNC(=O)[C@H](C)NC(=O)[C@H](CO)NC(=O)c1ccccc1N)C(=O)N[C@@H](Cc1ccc(O)c([N+](=O)[O-])c1)C(N)=O (H-[2Abz]SAGA[Tyr(3-NO2)]-NH2)	dengue virus type 2	1.62

Pending compound:
Form field kcat, entry CSCC[C@H](NC(=O)CNC(=O)[C@H](C)NC(=O)[C@H](CO)NC(=O)c1ccccc1N)C(=O)N[C@@H](Cc1ccc(O)c([N+](=O)[O-])c1)C(N)=O (H-[2Abz]SAGM[Tyr(3-NO2)]-NH2) : 1.86
